Molecular target: human PAD4 (hPAD4) (Homo sapiens, UniProt Q9UM07)
Sequence (Q9UM07 whole entry): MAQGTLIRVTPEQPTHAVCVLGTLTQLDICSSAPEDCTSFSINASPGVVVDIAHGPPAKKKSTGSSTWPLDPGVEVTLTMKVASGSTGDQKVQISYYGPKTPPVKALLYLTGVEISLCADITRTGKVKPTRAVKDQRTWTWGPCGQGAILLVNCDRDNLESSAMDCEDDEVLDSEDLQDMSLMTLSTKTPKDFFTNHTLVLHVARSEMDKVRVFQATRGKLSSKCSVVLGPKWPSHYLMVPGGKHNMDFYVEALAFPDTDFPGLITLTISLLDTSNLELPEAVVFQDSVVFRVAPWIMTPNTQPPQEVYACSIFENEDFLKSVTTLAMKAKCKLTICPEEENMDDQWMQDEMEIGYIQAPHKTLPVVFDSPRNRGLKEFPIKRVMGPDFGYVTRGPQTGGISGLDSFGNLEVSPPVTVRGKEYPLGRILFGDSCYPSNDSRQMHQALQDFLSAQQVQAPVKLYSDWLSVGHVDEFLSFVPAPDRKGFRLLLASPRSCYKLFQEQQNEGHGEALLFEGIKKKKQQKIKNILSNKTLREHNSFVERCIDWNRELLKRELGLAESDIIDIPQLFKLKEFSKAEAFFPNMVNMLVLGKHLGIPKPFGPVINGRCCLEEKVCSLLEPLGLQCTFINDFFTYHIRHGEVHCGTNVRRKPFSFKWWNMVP
Experiment: RFMS human PAD4 functional assay (rapid-fire mass spectrum)
Details: 5 nM hPAD4 enzyme, 250 μM BAEE, 50 μM Calcium; 30 min preincubation, 90 min reaction at 37° C.
Method: Compounds of the present invention were assayed as inhibitors of PAD4 using the assay protocol described below. RFMS tinman PAD4 Functional Assay: Compounds were solubilized in 100% DMSO to achieve a 10 mM compound concentration. Compound stock solutions were stored at RT. A series of dilutions were prepared in DMSO and mixed 8 times with 20 μl, mixing volume. Final top concentration of compound in the assay is 50 μM. […]
Property Measured: IC50 (nM)
Respond with the bare value in nM.

query: Item under review: COc1cncc(-n2cc(Cn3c(-c4cc5ccccc5n4CC4CC4)nc4cc(C(=O)N5CC6CCC5[C@@H]6N)cc(OC)c43)cn2)c1 (stereo partly drawn) . Reported IC50?
result: 15

query: Item under review: COc1cc(C(=O)N2C[C@H]3CC[C@@H]2[C@@H]3N)cc2nc(-c3cc4ccccc4n3CC3CC3)n(Cc3ccon3)c12 . Reported IC50?
result: 114

query: Item under review: COc1cc(C(=O)N2C[C@H]3CC[C@@H]2[C@@H]3N)cc2nc(-c3cc4cccnc4n3CC3CC3)n(CC3CN(C(=O)c4ccc(Cl)nc4)C3)c12 . Reported IC50?
result: 73

query: Item under review: COc1cc(C(=O)N2CC3CCC2[C@@H]3N)cc2nc(-c3cc4cccnc4n3CC3CC3)n(CC3CN(C(=O)C4CCC(F)(F)C4)C3)c12 (stereo partly drawn) . Reported IC50?
result: 30

query: Item under review: COc1cc(C(=O)N2C[C@H]3CC[C@@H]2[C@@H]3N)cc2nc(-c3cc4cccnc4n3CC3CC3)n(CC3CN(S(=O)(=O)c4ccc(Cl)nc4)C3)c12 . Reported IC50?
result: 225

query: Item under review: COc1cc(C(=O)N2CC3CCC2[C@@H]3N)cc2nc(-c3cc4ccccc4n3CC3CC3)n(C[C@H]3CCN(C(=O)c4ccc(C#N)cc4)C3)c12 (stereo partly drawn) . Reported IC50?
result: 37

query: Item under review: COc1cccc(C(=O)N2CC(Cn3c(-c4cc5ccccc5n4CC4CC4)nc4cc(C(=O)N5C[C@H]6CC[C@@H]5[C@@H]6N)cc(OC)c43)C2)c1 . Reported IC50?
result: 23

query: Item under review: COc1cc(C(=O)N2C[C@H]3CC[C@@H]2[C@@H]3N)cc2nc(-c3cc4cccnc4n3CC3CC3)n(C[C@@H]3CCN(c4cncc(C#N)c4)C3)c12 . Reported IC50?
result: 80

query: Item under review: COc1cc(C(=O)N2CC3CCC2[C@@H]3N)cc2nc(-c3cc4cccnc4n3CC3CC3)n(CC3CN(C(=O)c4c(F)cccc4F)C3)c12 (stereo partly drawn) . Reported IC50?
result: 30

query: Item under review: COc1cc(C(=O)N2CC3CCC2[C@@H]3N)cc2nc(-c3cc4ccccc4n3C)n(Cc3cnn(C)c3)c12 (stereo partly drawn) . Reported IC50?
result: 391

query: Item under review: COc1cc(C(=O)N2CCC[C@@H](N)C2)cc2nc(-c3cc4cccnc4n3CC3CC3)n([C@H]3C[C@@H](N)C3)c12 . Reported IC50?
result: 1650

query: Item under review: COc1cc(C(=O)N2C[C@H]3CC[C@@H]2[C@@H]3N)cc2nc(-c3cc4cccnc4n3CC3CC3)n(C[C@@H]3CCN(c4cncnc4C#N)C3)c12 . Reported IC50?
result: 116

###

Target: human PAD4 (hPAD4) (Homo sapiens, UniProt Q9UM07)
Test: RFMS human PAD4 functional assay (rapid-fire mass spectrum)
Conditions: 5 nM hPAD4 enzyme, 250 μM BAEE, 50 μM Calcium; 30 min preincubation, 90 min reaction at 37° C.
Property Measured: pIC50
Field pIC50 (float): negative decimal logarithm of the concentration in molar.

query: Item under review: COc1cc(C(=O)N2CC3CCC2[C@@H]3N)cc2nc(-c3cc4cccnc4n3CC3CC3)n(CC3CN(C(=O)c4cccc(F)c4)C3)c12 (stereo partly drawn) [Example 464] . Reported pIC50?
result: 7.12

query: Item under review: COc1cc(C(=O)N2C[C@H]3CC[C@@H]2[C@@H]3N)cc2nc(-c3cc4cccnc4n3CC3CC3)n(C3CNC3)c12 [Example 307] . Reported pIC50?
result: 6.53

query: Item under review: COc1cc(C(=O)N2C[C@H]3CC[C@@H]2[C@@H]3N)cc2nc(-c3cc4cccnc4n3CC3CC3)n(CC3CN(C(=O)c4cnc(C#N)nc4)C3)c12 [Example 127] . Reported pIC50?
result: 6.96

query: Item under review: COc1ncccc1-n1cc(Cn2c(-c3cc4cccnc4n3CC3CC3)nc3cc(C(=O)N4C[C@H](N)C[C@@H](F)C4)cc(OC)c32)cn1 [Example 343] . Reported pIC50?
result: 6.94

query: Item under review: COc1cc(C(=O)N2CC3CCC2[C@@H]3N)cc2nc(-c3cc4cccnc4n3CC3CC3)n([C@H]3C[C@@H](N)C3)c12 (stereo partly drawn) [Example 295] . Reported pIC50?
result: 6.55

query: Item under review: COc1cc(C(=O)N2C[C@H](N)C[C@@H](F)C2)cc2nc(-c3cc4cccnc4n3CC3CC3)n(Cc3cnn(-c4cccc(F)n4)c3)c12 [Example 344] . Reported pIC50?
result: 7.41

###

Biological target: human PAD4 (hPAD4) (Homo sapiens)
Test: RFMS human PAD4 functional assay (rapid-fire mass spectrum)
Settings: 5 nM hPAD4 enzyme, 250 μM BAEE, 50 μM Calcium; 30 min preincubation, 90 min reaction at 37° C.
Property Measured: pIC50
Field pIC50 (float): negative decimal logarithm of the concentration in molar.

query: Item under review: COc1cc(C(=O)N2CC(Cn3c(-c4cc5cccnc5n4CC4CC4)nc4cc(C(=O)N5CC6CCC5[C@@H]6N)cc(OC)c43)C2)ccn1 (stereo partly drawn) . Reported pIC50?
result: 7.42

query: Item under review: N[C@@H]1[C@@H]2CC[C@H]1N(C(=O)c1cc(Cl)c3c(c1)nc(-c1cc4cccnc4n1CC1CC1)n3CC1CN(C(=O)c3ccncc3)C1)C2 . Reported pIC50?
result: 6.86

query: Item under review: COc1cc(C(=O)N2C[C@H]3CC[C@@H]2[C@@H]3N)cc2nc(-c3cc4ccccc4n3CC3CC3)n(CC3CN(C(=O)c4cccn4C)C3)c12 . Reported pIC50?
result: 7.72

###

Target: human PAD4 (hPAD4) (Homo sapiens, UniProt Q9UM07)
Assay: RFMS human PAD4 functional assay (rapid-fire mass spectrum)
Conditions: 5 nM hPAD4 enzyme, 250 μM BAEE, 50 μM Calcium; 30 min preincubation, 90 min reaction at 37° C.
Please respond with reported IC50 for every item in the list.
Respond with the bare value in µM.

query: Item under review: COc1cc(C(=O)N2CC3CCC2[C@@H]3N)cc2nc(-c3cc4cccnc4n3CC3CC3)n(Cc3cnn(-c4cncc(Cl)c4)c3)c12 (stereo partly drawn) . Reported IC50?
result: 0.041

query: Item under review: COc1cc(C(=O)N2C[C@H]3CC[C@@H]2[C@@H]3N)cc2nc(-c3cc4cccnc4n3CC3CC3)n(CC3CCN(c4ccncn4)CC3)c12 . Reported IC50?
result: 0.056

query: Item under review: COc1cc(C(=O)N2C[C@H](N)C[C@@H](F)C2)cc2nc(-c3cc4cccnc4n3CC3CC3)n(Cc3cnn(-c4ccc(F)cn4)c3)c12 . Reported IC50?
result: 0.049

query: Item under review: COc1cc(C(=O)N2CC3CCC2[C@@H]3N)cc2nc(-c3cc4cccnc4n3CC3CC3)n(Cc3cnn(-c4cncc(F)c4)c3)c12 (stereo partly drawn) . Reported IC50?
result: 0.032

query: Item under review: COc1cc(C(=O)N2CC3CCC2C3N)cc2nc(-c3cc4cccnc4n3CC3CC3)n(CC3CCN(C(=O)c4ccc(C#N)cc4)C3)c12 (stereo not drawn) . Reported IC50?
result: 0.018

query: Item under review: COc1cc(C(=O)N2C[C@H]3CC[C@@H]2[C@@H]3N)cc2nc(-c3cc4cccnc4n3CC3CC3)n(CC3CN(c4cncc(C)n4)C3)c12 . Reported IC50?
result: 0.199

###

Please respond with reported IC50 for every item in the list.
Target: human PAD4 (hPAD4) (Homo sapiens, UniProt Q9UM07)
Assay: RFMS human PAD4 functional assay (rapid-fire mass spectrum)
Settings: 5 nM hPAD4 enzyme, 250 μM BAEE, 50 μM Calcium; 30 min preincubation, 90 min reaction at 37° C.
Respond with the bare value in nM.

query: Enter reported IC50 observed with human PAD4 (hPAD4) (Homo sapiens, UniProt Q9UM07) for COc1cc(C(=O)N2CC3CCC2[C@@H]3N)cc2nc(-c3cc4ccccc4n3CC3CC3)n(CC3CN(C(=O)c4ccncn4)C3)c12 (stereo partly drawn) [Example 437]
result: 34

query: Enter reported IC50 observed with human PAD4 (hPAD4) (Homo sapiens, UniProt Q9UM07) for COc1cc(C(=O)N2C[C@H]3CC[C@@H]2[C@@H]3N)cc2nc(-c3cc4ccc(Cl)cc4n3CC3CC3)n(CC3CN(c4cncc(C#N)c4)C3)c12 [Example 87]
result: 2280

query: Enter reported IC50 observed with human PAD4 (hPAD4) (Homo sapiens, UniProt Q9UM07) for COc1cc(C(=O)N2C[C@H]3CC[C@@H]2[C@@H]3N)cc2nc(-c3cc4ccc(Cl)cc4n3C)n(CC3CN(c4ccnc(C)n4)C3)c12 [Example 45]
result: 114

query: Enter reported IC50 observed with human PAD4 (hPAD4) (Homo sapiens, UniProt Q9UM07) for COc1cc(-n2cc(Cn3c(-c4cc5ccccc5n4CC4CC4)nc4cc(C(=O)N5CC6CCC5[C@@H]6N)cc(OC)c43)cn2)ccn1 (stereo partly drawn) [Example 366]
result: 28

query: Enter reported IC50 observed with human PAD4 (hPAD4) (Homo sapiens, UniProt Q9UM07) for COc1cc(C(=O)N2C[C@H]3CC[C@@H]2[C@@H]3N)cc2nc(-c3cc4ccccc4n3CC3CC3)n(CCCOc3ccc(C#N)cc3)c12 [Example 260]
result: 48

query: Enter reported IC50 observed with human PAD4 (hPAD4) (Homo sapiens, UniProt Q9UM07) for COc1cc(C(=O)N2CC3CCC2[C@@H]3N)cc2nc(-c3cc4cccnc4n3CC3CC3)n(CC3CCN(c4ncccn4)C3)c12 (stereo in doubt) [Example 234]
result: 332
